- test-target: T1, human tissue factor pathway inhibitor (TFPI) (human, UniProt P10646 29-304, limits assumed)
- T1 construct: bought; also called hTFPI; human TFPI
- T1 sequence (looked up): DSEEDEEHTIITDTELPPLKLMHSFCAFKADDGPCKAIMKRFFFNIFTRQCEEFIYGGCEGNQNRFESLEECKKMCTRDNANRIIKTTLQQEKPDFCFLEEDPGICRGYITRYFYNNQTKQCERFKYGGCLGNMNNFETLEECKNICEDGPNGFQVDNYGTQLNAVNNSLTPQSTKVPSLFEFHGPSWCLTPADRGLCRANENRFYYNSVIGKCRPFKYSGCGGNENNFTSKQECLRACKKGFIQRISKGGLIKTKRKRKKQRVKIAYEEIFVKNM
- assay-details: SPR, TFPI immobilized
Property: koff; scope: individual binders

| binder | koff (s⁻¹) |
| --- | --- |
| 2A8 wild-type Fab (Fab, V domains shown, Fab with c-myc (or HA, or none) and 6xHis tag at the C-terminus of the heavy chain; also called 2A8wt; 2A8 wt) VH: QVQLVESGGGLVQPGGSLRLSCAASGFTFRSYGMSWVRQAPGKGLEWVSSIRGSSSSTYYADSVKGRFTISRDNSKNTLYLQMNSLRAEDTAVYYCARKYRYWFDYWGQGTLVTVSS VL: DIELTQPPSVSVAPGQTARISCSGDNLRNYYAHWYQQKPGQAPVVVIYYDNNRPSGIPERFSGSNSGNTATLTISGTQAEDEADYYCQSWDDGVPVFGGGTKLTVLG | 0.0038 |
| 2A8-g216 (HC S31V+I51D+S55R+K99V/LC D1S+I2Y+A13S+S21T+R28P+N29K+Y48F+N51S+E80M+D91L+D92S+V94T+V96W) (Fab, V domains shown) VH: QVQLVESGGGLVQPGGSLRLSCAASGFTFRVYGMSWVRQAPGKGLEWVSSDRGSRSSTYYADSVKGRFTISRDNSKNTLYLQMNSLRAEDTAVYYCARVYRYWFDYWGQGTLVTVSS VL: SYELTQPPSVSVSPGQTARITCSGDNLPKYYAHWYQQKPGQAPVVVIFYDSNRPSGIPERFSGSNSGNTATLTISGTQAMDEADYYCQSWLSGTPWFGGGTKLTVLG | 5.29e-05 |
| 2A8-227 (HC S35D+K99L/LC Y48F+D91L+V96W) (Fab, V domains shown) VH: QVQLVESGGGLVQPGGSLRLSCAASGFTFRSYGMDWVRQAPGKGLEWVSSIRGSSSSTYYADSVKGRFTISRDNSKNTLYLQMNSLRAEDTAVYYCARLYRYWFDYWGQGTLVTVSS VL: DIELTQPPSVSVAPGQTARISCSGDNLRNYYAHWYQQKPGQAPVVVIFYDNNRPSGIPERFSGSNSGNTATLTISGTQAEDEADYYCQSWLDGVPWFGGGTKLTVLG | 0.000123 |
